Let's look at some molecules and their measured GI50.
System: MCF7
Assay: inhibitory activity against multi drug resistant MCF cell line.
Type: functional
Conditions: Homo sapiens, in the assay text read “MCF7 cell line” for “multi drug resistant MCF cell line”

Take a look at these entries with their results.
>  <RECORD SMILES>
Cc1ccc2nc3c(C(=O)NCCCN(C)CCCNC(=O)c4cccc5cc6cc(C)ccc6nc45)cccc3cc2c1

>  <ASSAY TARGET>
MCF7

>  <VALUE>
190 nM

$$$$
>  <RECORD SMILES>
CN(CCCNC(=O)c1cccc2cc3cccc(Br)c3nc12)CCCNC(=O)c1cccc2cc3cccc(Br)c3nc12

>  <ASSAY TARGET>
MCF7

>  <VALUE>
13 nM

$$$$
>  <RECORD SMILES>
CN(CCCNC(=O)c1c(Cl)ccc2cc3ccccc3nc12)CCCNC(=O)c1c(Cl)ccc2cc3ccccc3nc12

>  <ASSAY TARGET>
MCF7

>  <VALUE>
488 nM

$$$$
>  <RECORD SMILES>
CN(CCCNC(=O)c1cccc2cc3cccc(Cl)c3nc12)CCCNC(=O)c1cccc2cc3cccc(Cl)c3nc12

>  <ASSAY TARGET>
MCF7

>  <VALUE>
167 nM

$$$$
>  <RECORD SMILES>
CN(CCCNC(=O)c1cccc2cc3ccccc3nc12)CCCNC(=O)c1cccc2cc3ccccc3nc12

>  <ASSAY TARGET>
MCF7

>  <VALUE>
24 nM

$$$$
>  <RECORD SMILES>
Cc1ccc(C)c2nc3c(C(=O)NCCCN(C)CCCNC(=O)c4cccc5cc6c(C)ccc(C)c6nc45)cccc3cc12

>  <ASSAY TARGET>
MCF7

>  <VALUE>
< 10 nM

$$$$
>  <RECORD SMILES>
Cc1cccc2nc3c(C(=O)NCCCN(C)CCCNC(=O)c4cccc5cc6c(C)cccc6nc45)cccc3cc12

>  <ASSAY TARGET>
MCF7

>  <VALUE>
174 nM

$$$$

Then there is this molecule:
Request: Could you share what GI50 was measured for CN(CCCNC(=O)c1cccc2cc3cccc(C(F)(F)F)c3nc12)CCCNC(=O)c1cccc2cc3cccc(C(F)(F)F)c3nc12 , tested on MCF7?
Result: 79 nM

---

Test system: NCI/ADR-RES
Experiment: inhibitory activity against multi drug resistant NCI/ADR cell line.
Format: functional
Conditions: Homo sapiens
OBSERVED PROPERTY: GI50 (nM)
Output spec: scalar in nM, unitless text.

Solved entries (count: 6):
>  <RECORD SMILES>
CN(CCCNC(=O)c1cccc2cc3cccc(F)c3nc12)CCCNC(=O)c1cccc2cc3cccc(F)c3nc12

>  <VALUE UNIT>
nM

>  <GI50>
93

$$$$
>  <RECORD SMILES>
Cc1cc(C(=O)NCCCN(C)CCCNC(=O)c2cc(C)cc3cc4ccccc4nc23)c2nc3ccccc3cc2c1

>  <VALUE UNIT>
nM

>  <GI50>
657

$$$$
>  <RECORD SMILES>
CN(CCCNC(=O)c1cccc2cc3c(Cl)cccc3nc12)CCCNC(=O)c1cccc2cc3c(Cl)cccc3nc12

>  <VALUE UNIT>
nM

>  <GI50>
624

$$$$
>  <RECORD SMILES>
Cc1ccc2cc3ccccc3nc2c1C(=O)NCCCN(C)CCCNC(=O)c1c(C)ccc2cc3ccccc3nc12

>  <VALUE UNIT>
nM

>  <GI50>
16000

$$$$
>  <RECORD SMILES>
Cc1ccc(C(=O)NCCCN(C)CCCNC(=O)c2ccc(C)c3cc4ccccc4nc23)c2nc3ccccc3cc12

>  <VALUE UNIT>
nM

>  <GI50>
77

$$$$
>  <RECORD SMILES>
Cc1cccc2nc3c(C(=O)NCCCN(C)CCCNC(=O)c4cccc5cc6c(C)cccc6nc45)cccc3cc12

>  <VALUE UNIT>
nM

>  <GI50>
1040

$$$$

Request: Item under review: CN(CCCNC(=O)c1cccc2cc3cccc(Cl)c3nc12)CCCNC(=O)c1cccc2cc3cccc(Cl)c3nc12 . Reported GI50?
Result: 1200

Request: Consider the compound CN(CCCNC(=O)c1cccc2cc3cccc(C(F)(F)F)c3nc12)CCCNC(=O)c1cccc2cc3cccc(C(F)(F)F)c3nc12 and give its measured GI50.
Result: 1290

Request: Using the record for CCc1cccc2cc3cccc(C(=O)NCCCN(C)CCCNC(=O)c4cccc5cc6cccc(CC)c6nc45)c3nc12 , report its GI50.
Result: 1340

Request: Sample CN(CCCNC(=O)c1cccc2cc3ccc(Cl)cc3nc12)CCCNC(=O)c1cccc2cc3ccc(Cl)cc3nc12 — what was its GI50?
Result: 274

Request: Name the recorded GI50 for CN(CCCNC(=O)c1cccc2cc3ccccc3nc12)CCCNC(=O)c1cccc2cc3ccccc3nc12 .
Result: 408

Request: // returns reported GI50 for input Cc1ccc2cc3cccc(C(=O)NCCCN(C)CCCNC(=O)c4cccc5cc6ccc(C)cc6nc45)c3nc2c1
Result: 407

Request: Name the reported GI50 value associated with the compound COc1cccc2cc3cccc(C(=O)NCCCN(C)CCCNC(=O)c4cccc5cc6cccc(OC)c6nc45)c3nc12
Result: 1390

Request: Which GI50 is listed for CN(CCCNC(=O)c1cccc2cc3cccc(Br)c3nc12)CCCNC(=O)c1cccc2cc3cccc(Br)c3nc12 ?
Result: 110

Request: I have this compound here, CN(CCCNC(=O)c1cccc2cc3cccc(-c4ccccc4)c3nc12)CCCNC(=O)c1cccc2cc3cccc(-c4ccccc4)c3nc12 , and I need its recorded GI50.
Result: 1790

Request: Which GI50 is listed for Cc1cccc2cc3cccc(C(=O)NCCCN(C)CCCNC(=O)c4cccc5cc6cccc(C)c6nc45)c3nc12 ?
Result: 116

---

Reported GI50 values for a set of molecules
System: MCF7
Experiment: inhibitory activity against multi drug resistant MCF cell line.
Type: functional
Settings: Homo sapiens, in the assay text read “MCF7 cell line” for “multi drug resistant MCF cell line”
Please give a number only; it is taken to be in µM.

Previously resolved entries follow.
>  <RECORD SMILES>
Cc1ccc2cc3cccc(C(=O)NCCCN(C)CCCNC(=O)c4cccc5cc6ccc(C)cc6nc45)c3nc2c1

>  <ASSAY TARGET>
MCF7

>  <VALUE UNIT>
µM

>  <GI50>
0.53

$$$$
>  <RECORD SMILES>
Cc1ccc2cc3ccccc3nc2c1C(=O)NCCCN(C)CCCNC(=O)c1c(C)ccc2cc3ccccc3nc12

>  <ASSAY TARGET>
MCF7

>  <VALUE UNIT>
µM

>  <GI50>
3.03

$$$$

Consider now this further molecule.
Request: Sample CN(CCCNC(=O)c1cccc2cc3ccc(Cl)cc3nc12)CCCNC(=O)c1cccc2cc3ccc(Cl)cc3nc12 — what was its GI50?
Result: 0.013

---

Tested on: P388
Experiment: Inhibitory activity against Murine […]
Type: functional, cell-based
Conditions: Mus musculus
OBSERVED PROPERTY: IC50 (nM)
State the answer as a number, implicitly in nM.

Below, each entry is followed by its recorded IC50 result.
>  <RECORD SMILES>
Cc1cccc2cc3c(Cl)ccc(C(=O)NCCCN(C)CCCNC(=O)c4ccc(Cl)c5cc6cccc(C)c6nc45)c3nc12

>  <VALUE UNIT>
nM

>  <IC50>
48

$$$$
>  <RECORD SMILES>
CCc1ccc2nc3c(C(=O)NCCCN(C)CCCNC(=O)c4cccc5cc6cc(CC)ccc6nc45)cccc3cc2c1

>  <VALUE UNIT>
nM

>  <IC50>
1080

$$$$
>  <RECORD SMILES>
Cc1ccc(C(=O)NCCCN(C)CCCNC(=O)c2ccc(C)c3cc4cccc(C)c4nc23)c2nc3c(C)cccc3cc12

>  <VALUE UNIT>
nM

>  <IC50>
21

$$$$

Request: Please provide the recorded IC50 for Cc1cccc2cc3cccc(C(=O)NCCCN(C)CCCNC(=O)c4cccc5cc6cccc(C)c6nc45)c3nc12 , tested on P388.
Result: 23

---

Tested on: Lewis lung carcinoma cell line
Experiment: Inhibitory activity of tested against Murine Lewis lung carcinoma
Format: functional, cell-based
Details: Mus musculus
pIC50: −log10 of the molar value.
Would you mind labelling by pIC50? At or over 7 is True, under is False.

Request: Assess whether reported pIC50 for Cc1cc(C)c2nc3c(C(=O)NCCCN(C)CCCNC(=O)c4cccc5cc6cc(C)cc(C)c6nc45)cccc3cc2c1 sits at 7 or higher.
Result: True

Request: Does the reported pIC50 for Cc1cccc2nc3c(C(=O)NCCCN(C)CCCNC(=O)c4cccc5cc6c(C)cccc6nc45)cccc3cc12 fall at or above the 7 mark?
Result: True

---

Test system: P388
Experiment: Inhibitory activity against Murine […]
Assay type: functional, cell-based
Conditions: Mus musculus
OBSERVED PROPERTY: pIC50
Keep in mind that pIC50 stands for -log10 of concentration in molar terms.

Some compounds with recorded pIC50:
>  <RECORD SMILES>
CN(CCCNC(=O)c1cccc2cc3cc(Br)ccc3nc12)CCCNC(=O)c1cccc2cc3cc(Br)ccc3nc12

>  <ASSAY TARGET>
P388

>  <VALUE>
6.65

$$$$
>  <RECORD SMILES>
CN(CCCNC(=O)c1cccc2cc3ccc(Cl)cc3nc12)CCCNC(=O)c1cccc2cc3ccc(Cl)cc3nc12

>  <ASSAY TARGET>
P388

>  <VALUE>
7.18

$$$$
>  <RECORD SMILES>
CN(CCCNC(=O)c1cccc2cc3cccc(Br)c3nc12)CCCNC(=O)c1cccc2cc3cccc(Br)c3nc12

>  <ASSAY TARGET>
P388

>  <VALUE>
7.82

$$$$
>  <RECORD SMILES>
CN(CCCNC(=O)c1cccc2cc3ccc(N(C)C)cc3nc12)CCCNC(=O)c1cccc2cc3ccc(N(C)C)cc3nc12

>  <ASSAY TARGET>
P388

>  <VALUE>
6.12

$$$$
>  <RECORD SMILES>
Cc1ccc(C)c2nc3c(C(=O)NCCCN(C)CCCNC(=O)c4cccc5cc6c(C)ccc(C)c6nc45)cccc3cc12

>  <ASSAY TARGET>
P388

>  <VALUE>
7.62

$$$$
>  <RECORD SMILES>
CN(CCCNC(=O)c1cccc2cc3ccc(Br)cc3nc12)CCCNC(=O)c1cccc2cc3ccc(Br)cc3nc12

>  <ASSAY TARGET>
P388

>  <VALUE>
7.31

$$$$
>  <RECORD SMILES>
CN(CCCNC(=O)c1cccc2cc3cccc(Cl)c3nc12)CCCNC(=O)c1cccc2cc3cccc(Cl)c3nc12

>  <ASSAY TARGET>
P388

>  <VALUE>
7.34

$$$$
>  <RECORD SMILES>
Cc1ccc2cc3ccccc3nc2c1C(=O)NCCCN(C)CCCNC(=O)c1c(C)ccc2cc3ccccc3nc12

>  <ASSAY TARGET>
P388

>  <VALUE>
5.46

$$$$
>  <RECORD SMILES>
COc1cccc2cc3cccc(C(=O)NCCCN(C)CCCNC(=O)c4cccc5cc6cccc(OC)c6nc45)c3nc12

>  <ASSAY TARGET>
P388

>  <VALUE>
6.37

$$$$
>  <RECORD SMILES>
Cc1cc(C(=O)NCCCN(C)CCCNC(=O)c2cc(C)cc3cc4ccccc4nc23)c2nc3ccccc3cc2c1

>  <ASSAY TARGET>
P388

>  <VALUE>
6.66

$$$$

Request: Tell me the measured pIC50 of COc1ccc2nc3c(C(=O)NCCCN(C)CCCNC(=O)c4cccc5cc6cc(OC)ccc6nc45)cccc3cc2c1 , please.
Result: 6.88

Request: Data request, read-out pIC50, for CN(CCCNC(=O)c1ccc(Cl)c2cc3ccccc3nc12)CCCNC(=O)c1ccc(Cl)c2cc3ccccc3nc12
Result: 6.40

Request: Request the reported pIC50 associated with CN(CCCNC(=O)c1cccc2cc3cccc(-c4ccccc4)c3nc12)CCCNC(=O)c1cccc2cc3cccc(-c4ccccc4)c3nc12
Result: 5.91

Request: Requested read-out: pIC50. Entry: CN(CCCNC(=O)c1cccc2cc3c(Cl)cccc3nc12)CCCNC(=O)c1cccc2cc3c(Cl)cccc3nc12
Result: 6.12

Request: Reported pIC50 for Cc1cccc2nc3c(C(=O)NCCCN(C)CCCNC(=O)c4cccc5cc6c(C)cccc6nc45)cccc3cc12 : what is it?
Result: 6.74
